// glycan array binding signal (z-score) lookup, one value per entry
Target: Neu5Ac(a2-3)[GalNAc(b1-4)]Gal(b1-4)GlcNAc(b1-3)GalNAc
Test: glycan array binding signal (z-score within array); higher = stronger binding
Settings: glycan notation: IUPAC condensed, linker removed
The entries come from a sample that favours the strongest signals as a whole.

| binder | glycan array binding signal (z-score) |
| --- | --- |
| GNA (Galanthus nivalis), P30617 (protein) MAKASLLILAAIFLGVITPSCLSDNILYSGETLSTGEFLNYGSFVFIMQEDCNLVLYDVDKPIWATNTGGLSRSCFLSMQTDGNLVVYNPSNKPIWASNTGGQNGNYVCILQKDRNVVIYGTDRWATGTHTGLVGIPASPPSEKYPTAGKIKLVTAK | -0.073 |
| ABA (Agaricus bisporus), Q00022 (protein) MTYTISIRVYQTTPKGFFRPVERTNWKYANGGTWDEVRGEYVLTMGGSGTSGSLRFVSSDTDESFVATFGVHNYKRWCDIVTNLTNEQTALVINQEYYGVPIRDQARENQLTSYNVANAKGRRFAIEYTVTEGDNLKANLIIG | 1.31 |
| Gal 12 (Homo sapiens), Q96DT0 (protein) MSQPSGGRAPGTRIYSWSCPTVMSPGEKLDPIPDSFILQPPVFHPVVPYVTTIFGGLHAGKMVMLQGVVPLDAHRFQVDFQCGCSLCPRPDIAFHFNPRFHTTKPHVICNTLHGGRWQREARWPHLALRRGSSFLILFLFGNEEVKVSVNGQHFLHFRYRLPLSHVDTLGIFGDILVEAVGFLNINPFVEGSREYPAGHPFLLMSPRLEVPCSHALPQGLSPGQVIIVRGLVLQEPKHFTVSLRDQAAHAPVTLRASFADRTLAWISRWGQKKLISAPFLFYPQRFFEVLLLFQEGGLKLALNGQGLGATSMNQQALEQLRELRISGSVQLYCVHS | -0.063 |
